Sourced from the RNAGym collection of RNA variant scans (doi:10.1101/gad.245936.114)

B1: tRNA (parent)
chain: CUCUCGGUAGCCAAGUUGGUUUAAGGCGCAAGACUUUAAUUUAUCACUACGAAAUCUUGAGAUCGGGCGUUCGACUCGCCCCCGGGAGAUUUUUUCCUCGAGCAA

Variants of: B1
Experiment: nonsense suppression (GFP-seq) (ratio to wild type); higher = more function; SUP4oc tRNA, yeast GFP reporter sort-seq
This sample holds only a part of the variants without activity.
Measurement kind: nonsense suppression
Keep it simple and answer with nothing but the number.

Consider the reported nonsense suppression for these variants:
| Variant string | Measurement kind | Data value |
| --- | --- | --- |
| A30G | nonsense suppression | 1.11 |
| A54U | nonsense suppression | 1.04 |
| A9G G10U | nonsense suppression | 0.0476 |
| A23G A24C | nonsense suppression | 0.156 |
| A9G U17C U22C | nonsense suppression | 0.133 |

Then there is this variant:
Query: Suppose we examine the variant A31C A60U C75A ; what nonsense suppression value has been reported?
Response: 1.23
